Target: human ether-à-go-go-related gene (hERG) potassium channel (human, UniProt Q12809);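 also: peak tail current of the secondary pulse compared with the same well before compound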
Sequence (Q12809 whole entry, looked up): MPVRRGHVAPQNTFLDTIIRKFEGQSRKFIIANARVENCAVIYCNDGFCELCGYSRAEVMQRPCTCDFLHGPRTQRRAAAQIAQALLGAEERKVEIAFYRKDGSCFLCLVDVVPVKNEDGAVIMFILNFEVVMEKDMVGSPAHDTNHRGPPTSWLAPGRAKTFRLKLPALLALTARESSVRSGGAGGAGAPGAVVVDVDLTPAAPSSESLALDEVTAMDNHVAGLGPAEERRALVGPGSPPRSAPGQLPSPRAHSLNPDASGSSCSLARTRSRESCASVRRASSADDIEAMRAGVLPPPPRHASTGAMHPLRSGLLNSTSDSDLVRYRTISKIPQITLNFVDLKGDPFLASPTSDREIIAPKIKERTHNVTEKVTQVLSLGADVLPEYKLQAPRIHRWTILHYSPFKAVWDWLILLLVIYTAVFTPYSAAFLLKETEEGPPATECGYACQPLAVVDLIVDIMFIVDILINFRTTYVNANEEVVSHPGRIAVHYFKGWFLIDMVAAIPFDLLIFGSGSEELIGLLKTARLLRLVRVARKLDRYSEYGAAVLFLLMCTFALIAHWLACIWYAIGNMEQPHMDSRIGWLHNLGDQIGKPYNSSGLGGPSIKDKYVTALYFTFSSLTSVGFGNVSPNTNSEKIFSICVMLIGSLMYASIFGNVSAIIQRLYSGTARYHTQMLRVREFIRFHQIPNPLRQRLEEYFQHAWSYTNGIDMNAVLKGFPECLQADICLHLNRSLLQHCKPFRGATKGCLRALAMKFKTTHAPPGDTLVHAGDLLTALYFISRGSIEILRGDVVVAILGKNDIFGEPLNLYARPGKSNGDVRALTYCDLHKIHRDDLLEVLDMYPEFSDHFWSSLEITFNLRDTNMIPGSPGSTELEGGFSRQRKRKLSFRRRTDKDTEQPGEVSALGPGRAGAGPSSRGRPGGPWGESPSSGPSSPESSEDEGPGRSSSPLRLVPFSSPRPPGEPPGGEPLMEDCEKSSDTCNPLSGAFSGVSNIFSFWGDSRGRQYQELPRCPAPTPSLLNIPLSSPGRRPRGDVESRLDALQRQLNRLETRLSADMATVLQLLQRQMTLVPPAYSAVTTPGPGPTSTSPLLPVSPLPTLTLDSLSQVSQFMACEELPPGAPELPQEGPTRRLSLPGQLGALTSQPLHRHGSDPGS
Experiment: primary screen, population patch clamp on CHO cells stably expressing hERG; higher = less effect of the substance
Protocol: Briefly, Chinese hamster ovary (CHO) cells stably expressing the hERG channel were dislodged from tissue culture flasks and dispensed into PPC plates. […] During the recording, background leak currents were estimated by a 100 ms step to -80 mV from an initial holding potential of -70 mV and subtracted from the subsequent current measurement. The campaign was conducted in two phases using slight differences in recording protocol. […]
Out of some 310,000 compounds screened, about 14,000 (4.5%) showed an effect of 50% or more. The effect is printed as a negative number. This is one part of a sample in which strong results are shown more often than they occur.
PROPERTY: hERG current change (%, negative = inhibition) at 10uM (%)
Return type: number; implicit unit %.

{"COMPOUND": "N/C(=N\\OC(=O)/C=C/c1ccccc1)c1ccc(Br)cc1", "TARGET_OR_SYSTEM": "human ether-à-go-go-related gene (hERG) potassium channel (human, UniProt Q12809)", "REPORTED_VALUE": 4.83}

*Q* What measured hERG current change (%, negative = inhibition) at 10uM goes with "COc1cccc(CN2CCC(n3nccc3NC(=O)CCCc3ccccc3)CC2)c1O" ?
*A* -75.9

*Q* Find the recorded hERG current change (%, negative = inhibition) at 10uM belonging to "C=CCOc1ccccc1CN1CCC(n2nccc2NC(=O)c2ccccc2)CC1" and report it.
*A* -64.4

*Q* Request the reported hERG current change (%, negative = inhibition) at 10uM associated with "CCOc1ccccc1CN1CCC(n2nccc2NC(=O)CCc2ccccc2)CC1"
*A* -38.6

*Q* I'd like to know its hERG current change (%, negative = inhibition) at 10uM. The compound in question is "COc1ccccc1NC(=O)c1ccc(-n2ccnc2)c([N+](=O)[O-])c1"
*A* 15.1

*Q* Using the record for CC(NC(=O)c1ccc(N(C)C)c([N+](=O)[O-])c1)c1ccc(-n2ccnc2)cc1 (stereo not drawn) , report its hERG current change (%, negative = inhibition) at 10uM.
*A* -62.9

*Q* Look up hERG current change (%, negative = inhibition) at 10uM for this compound: "O=C(Nc1ccnn1C1CCN(Cc2c[nH]c3ccccc23)CC1)c1ccccc1"
*A* -44.7

*Q* Dear colleague, I am looking for the recorded hERG current change (%, negative = inhibition) at 10uM of the following compound: "COc1ccccc1CN1CCC(n2nccc2NC(=O)CCc2ccccc2)CC1"
*A* -23.9

*Q* Give its hERG current change (%, negative = inhibition) at 10uM value. Item: Cc1c(C(=O)NC(C)c2ccc(-n3ccnc3)cc2)cccc1[N+](=O)[O-] (stereo not drawn)
*A* -74.1
